Test system: HS-PSS
EXPERIMENT: % inhibition of CellTiter-Glo viability at highest tested concentration (72 h), relative to DMSO and benzethonium chloride controls; higher = more inhibition
RESULT_TYPE: % inhibition (%)

1) Cc1[nH]c(/C=C2\C(=O)Nc3ccccc32)c(C)c1CCC(=O)O [Orantinib] (max concentration tested 10000 nM) : 15
2) N[C@@H]1CCCN(c2c(/C=C3\SC(=O)NC3=O)cccc2-c2ccccc2)C1 [AZD1208] (max concentration tested 10000 nM) : -5.48
3) COc1cc(OC)c(/C=C/S(=O)(=O)Cc2ccc(OC)c(NCC(=O)O)c2)c(OC)c1 [Rigosertib] (max concentration tested 10000 nM) : 61.8
4) CC(=O)NCC(=O)N1[C@@H]2CC[C@H]1c1ccc(Nc3ncc(C(F)(F)F)c(NC4CCC4)n3)cc12 (max concentration tested 10000 nM) : 87.8
5) N#Cc1ccc(COC[C@H]2O[C@@H](n3c(NCc4ccc(Cl)c(Cl)c4)nc4c(N)ncnc43)[C@H](O)[C@@H]2O)cc1 (max concentration tested 10000 nM) : 21.7
6) O=C(CCBr)N1CCN(C(=O)CCBr)CC1 [Pipobroman] (max concentration tested 10000 nM) : 1.73
7) COc1ccc(Cl)c(Nc2nc3ccccc3nc2NS(=O)(=O)c2cccc(NC(=O)C(C)(C)N)c2)c1 [Pilaralisib] (max concentration tested 2500 nM) : 7.45
8) CCN(CC)C(=S)SSC(=S)N(CC)CC [Disulfiram] (max concentration tested 100000 nM) : 101
9) CC(C)[C@H](C(=O)Nc1ccc(C(=O)NO)cc1)c1ccccc1 [AR-42] (max concentration tested 10000 nM) : 88.1
10) CCCCCCCCCCCCCCCCCCOP(=O)([O-])OC1CC[N+](C)(C)CC1 [Perifosine] (max concentration tested 2500 nM) : 0.4
11) CNC(=O)c1ccc(N2C(=S)N(c3ccc(C#N)c(C(F)(F)F)c3)C(=O)C2(C)C)cc1F [Enzalutamide] (max concentration tested 10000 nM) : 7.35
12) Cn1c(Nc2ccc(C(F)(F)F)cc2)nc2cc(Oc3ccnc(-c4ncc(C(F)(F)F)[nH]4)c3)ccc21 [RAF265] (max concentration tested 1000 nM) : 52.2
13) CN(C)C(=O)c1cc2cnc(Nc3ccc(N4CCNCC4)cn3)nc2n1C1CCCC1 [Ribociclib] (max concentration tested 10000 nM) : 28.2
